- procedure.text: Membrane permeabilization activity assessed as release of calcein from liposomes after 10 mins by fluorescence assay
- Assay type: physicochemical
- test.context: calcein-loaded liposomes, probe calcein
Listing: EC50 at 10 min of selected compounds

compound: CC(C(=O)O)c1ccc(CC2CCCC2=O)cc1-c1ccc(F)cc1 (configuration not stated)
EC50 at 10 min: 20 mM
--
compound: CSc1ccc(-c2cc(C(C)C(=O)O)ccc2CC2CCCC2=O)cc1 (configuration not stated)
EC50 at 10 min: < 10 mM
--
compound: CC(C(=O)O)c1ccc(CC2CCCC2=O)cc1-c1ccc(C(=O)O)cc1 (configuration not stated)
EC50 at 10 min: < 10 mM
--
compound: CC(C(=O)O)c1ccc(CC2CCCC2=O)cc1-c1ccccc1 (configuration not stated)
EC50 at 10 min: < 100 mM
--
compound: Cc1ccc(-c2cc(C(C)C(=O)O)ccc2CC2CCCC2=O)cc1 (configuration not stated)
EC50 at 10 min: < 100 mM
--
compound: COc1ccc(-c2cc(C(C)C(=O)O)ccc2CC2CCCC2=O)cc1 (configuration not stated)
EC50 at 10 min: < 100 mM
--
compound: CC(C(=O)O)c1ccc(CC2CCCC2=O)c(Br)c1 (configuration not stated)
EC50 at 10 min: < 100 mM
--
compound: Cc1ccc(-c2cc(CC3CCCC3=O)ccc2C(C)C(=O)O)cc1 (configuration not stated)
EC50 at 10 min: < 100 mM
--
compound: CC(C(=O)O)c1ccc(CC2CCCC2=O)cc1Cl (configuration not stated)
EC50 at 10 min: 100 mM
--
compound: CC(C(=O)O)c1ccc(CC2CCCC2=O)c(-c2ccc(F)cc2)c1 (configuration not stated)
EC50 at 10 min: < 100 mM
--
compound: Cc1ccc(-c2cc(C(F)(F)F)nn2-c2ccc(S(N)(=O)=O)cc2)cc1
EC50 at 10 min: 0.09 mM
--
compound: COc1ccc(-c2cc(CC3CCCC3=O)ccc2C(C)C(=O)O)cc1 (configuration not stated)
EC50 at 10 min: < 100 mM
--
compound: CC(C(=O)[O-])c1ccc(CC2CCCC2=O)cc1-c1ccc(O)cc1.[Na+] (configuration not stated)
EC50 at 10 min: 25 mM
--
compound: CC(C(=O)O)c1ccc(CC2CCCC2=O)cc1-c1ccc(OC(F)(F)F)cc1 (configuration not stated)
EC50 at 10 min: 6 mM
--
compound: CC(C(=O)O)c1ccc(CC2CCCC2=O)c(-c2ccccc2)c1 (configuration not stated)
EC50 at 10 min: < 100 mM
--
compound: CSc1ccc(-c2cc(CC3CCCC3=O)ccc2C(C)C(=O)O)cc1 (configuration not stated)
EC50 at 10 min: < 100 mM
--
compound: CC(C(=O)O)c1ccc(CC2CCCC2=O)c(-c2ccc(OC(F)(F)F)cc2)c1 (configuration not stated)
EC50 at 10 min: < 10 mM

This collection of values is drawn from ChEMBL document CHEMBL1811892.
